FYI, the data here is from PubChem BioAssay (NCI).

assay: NCI Yeast Anticancer Drug Screen. Data for the mlh1 rad18 strain (AID 175); conditions: S. cerevisiae mlh1 rad18 strain growth inhibition, hits give high values; at 50.0 µM unless noted
Compounds without any hit were thinned out: in the full panel of roughly 79,000, 15% have a hit.
Kindly supply the reported growth inhibition values for the records listed here.
One number for each entry, in %.

Look over these answered cases.
CC(=O)OCCN(CCOC(C)=O)CCOC(C)=O | 18.5
c1ccc2cnncc2c1 | 0.25
CC(=O)c1cccc(NC(=O)Oc2cc(=O)oc3ccccc23)c1 | 29.5

Please state, for each entry, its recorded growth inhibition.
1. O=C1NCC2(CCN(CCCC3(c4ccc(F)cc4)OCCO3)CC2)N1c1ccccc1
2. COc1ccc(C(=O)CN2CCN(c3ccccc3)CC2)cc1
3. CC(C)NCC(O)COc1cccc2[nH]c3ccccc3c12 (stereo not drawn)
4. CCCCCCCCCOCC(=O)O
5. CNC(CCCCC1CCCCC1)C(=O)O (stereo not drawn)

Resp:
1: 1.55; 2: 5.35; 3: -0.4; 4: 6.4; 5: -0.2

Please state, for each entry, its recorded growth inhibition.
1. Clc1ccc(-c2cn3c(nc4ccccc43)c(-c3ccccc3)n2)cc1
2. CC1=NC(=Cc2cc(Br)cc(Br)c2)C(=O)N1n1c(-c2ccccc2)nc2ccccc2c1=O
3. NCCCCCCCCCCN
4. COc1cc(C2c3cc4c(c(OC)c3CC3COC(=O)[C@@H]32)OCO4)cc(OC)c1O (stereo partly drawn)
5. Clc1ccc2[nH]c3c(c2c1)CCCC3

Resp:
[-16, 2.7, -11.9, 87.7, 28.8]
